meta.source: patent US8835442B2

cAMP concentration by entry:
Target: A2A receptor (Homo sapiens, UniProt P29274)
Construct: host or cells: HEK 293
Sequence (P29274 whole entry): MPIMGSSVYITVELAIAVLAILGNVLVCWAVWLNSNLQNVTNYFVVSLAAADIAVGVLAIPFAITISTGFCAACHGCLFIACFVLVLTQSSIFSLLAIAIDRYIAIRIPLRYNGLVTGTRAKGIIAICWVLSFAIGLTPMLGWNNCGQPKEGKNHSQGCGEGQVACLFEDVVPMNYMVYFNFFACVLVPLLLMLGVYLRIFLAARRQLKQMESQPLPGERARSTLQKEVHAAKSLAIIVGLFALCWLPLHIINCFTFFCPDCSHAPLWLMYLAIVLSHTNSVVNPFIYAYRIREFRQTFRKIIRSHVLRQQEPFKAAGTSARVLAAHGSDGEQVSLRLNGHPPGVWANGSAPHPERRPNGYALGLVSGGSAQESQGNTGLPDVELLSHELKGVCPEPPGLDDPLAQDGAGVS
Experiment: cAMP functional assay in forskolin-pretreated HEK 293 cells
Assay type: cell-based
Settings: 25 μM forskolin 2 h, then 100 nM compound for 24 h
observed property: cAMP concentration (nM)

# compound structure string, observed property, units label, numeric value
measured = [
    ("N=c1c2sc(=S)n(-c3ccccc3)c2ncn1NC(N)=O", "cAMP concentration", "nM", 0.078),
    ("CCn1c(=S)sc2c(=N)n(NC(=O)c3ccco3)cnc21", "cAMP concentration", "nM", 0.12),
    ("CCCn1c(=S)sc2c(=N)n(NC(N)=O)cnc21", "cAMP concentration", "nM", 0.14),
    ("N=c1c2sc(=S)n(Cc3ccccc3)c2ncn1NC(N)=O", "cAMP concentration", "nM", 0.067),
    ("CCCCn1c(=S)sc2c(=N)n(NC(N)=O)cnc21", "cAMP concentration", "nM", 0.083),
    ("N=c1c2sc(=S)n(-c3ccc(I)cc3)c2ncn1NC(N)=O", "cAMP concentration", "nM", 0.076),
]
